Where do these numbers come from? They come from paper PMC10975980.

Target: acetylcholinesterase from Electrophorus electricus (AChE, EC 3.1.1.7, type V-S) (Electrophorus electricus)
Construct: commercial native electric eel enzyme, type V-S (Merck), crude enzyme protein dissolved in PBS with BSA as stabilizer
Sequence (O42275 24-633): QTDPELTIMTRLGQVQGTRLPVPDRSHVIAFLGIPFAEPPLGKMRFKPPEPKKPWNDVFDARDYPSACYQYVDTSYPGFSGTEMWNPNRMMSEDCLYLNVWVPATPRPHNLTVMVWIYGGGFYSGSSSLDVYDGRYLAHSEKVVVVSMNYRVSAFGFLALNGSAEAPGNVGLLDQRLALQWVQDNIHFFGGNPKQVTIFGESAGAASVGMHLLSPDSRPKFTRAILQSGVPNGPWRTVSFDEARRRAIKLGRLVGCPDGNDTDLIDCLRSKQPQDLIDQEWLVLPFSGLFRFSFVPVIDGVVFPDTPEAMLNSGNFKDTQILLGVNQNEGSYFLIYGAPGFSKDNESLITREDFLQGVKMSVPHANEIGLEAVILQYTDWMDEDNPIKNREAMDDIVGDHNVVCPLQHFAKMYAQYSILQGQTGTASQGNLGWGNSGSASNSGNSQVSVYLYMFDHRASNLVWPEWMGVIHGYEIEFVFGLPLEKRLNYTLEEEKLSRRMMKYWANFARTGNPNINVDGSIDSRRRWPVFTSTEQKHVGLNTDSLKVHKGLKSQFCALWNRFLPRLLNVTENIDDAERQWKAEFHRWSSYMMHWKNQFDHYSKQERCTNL
Assay: fluorimetric indoxyl acetate assay (Open Meter Duo)
REPORTED_ENDPOINT: IC50
Please format your answer as a value with the unit trailing.

Any idea what IC50 was measured for CNC(=O)Oc1cccc2c1OC(C)(C)C2 ? 84.3 nM
